tested on: NCI-H522
observed property: GI50 (µM)
Answers are plain numbers, in µM.

Past entries and their recorded results:
[
  {
    "chemical string": "CCc1c[nH]c(/C=N/NC(=O)c2[nH]c3ccc(Br)cc3c2-c2ccccc2)c1",
    "GI50 / µM": 0.206
  },
  {
    "chemical string": "O=C(N/N=C/c1cc(Br)c(Br)[nH]1)c1[nH]c2ccc(Br)cc2c1-c1ccccc1",
    "GI50 / µM": 0.623
  }
]

Dear colleague, could you send me GI50 for each of the items below? Thanks.
1. CCc1ccc(/C=N/NC(=O)c2[nH]c3ccc(Br)cc3c2-c2ccccc2)[nH]1
2. O=C(N/N=C/c1cc[nH]c1)c1[nH]c2ccc(Br)cc2c1-c1ccccc1
3. Cc1[nH]c(/C=N/NC(=O)c2[nH]c3ccc(Br)cc3c2-c2ccccc2)c(C)c1[N+](=O)[O-]
4. O=C(N/N=C/c1ccc[nH]1)c1[nH]c2ccc(Br)cc2c1-c1ccccc1
5. O=C(N/N=C/c1ccc(C(=O)N2CCOCC2)[nH]1)c1[nH]c2ccc(Br)cc2c1-c1ccccc1
6. CCOC(=O)c1ccc(/C=N/NC(=O)c2[nH]c3ccc(Br)cc3c2-c2ccccc2)[nH]1

A.
[0.183, 0.925, 2.43, 0.045, 1.6, 0.46]
